target: D2LR (Homo sapiens); assay: Quantification of biased agonism between pathways (operational model, LogBias); type: cell-based; design: expressed in transfected cells; details: 5 minute timepoint; dopamine as reference agonist

>  <Compound>
CN1CCN(c2cccc3[nH]c(=O)oc23)CC1 [Pardoprunox, pardoprunox]

>  <LogBias GαoB – CI>
-0.29

$$$$
>  <Compound>
CCCN(CCC)CCc1cccc2c1CC(=O)N2 [Ropinirole, ropinirole]

>  <LogBias GαoB – CI>
0.07

$$$$
>  <Compound>
CCCN1CCC[C@@H](c2cccc(O)c2)C1 [S-3PPP]

>  <LogBias GαoB – CI>
0.37

$$$$
>  <Compound>
O=c1[nH]c2cccc(N3CCN(Cc4cccc(-c5ccccc5)c4)CC3)c2o1 [Bifeprunox, bifeprunox]

>  <LogBias GαoB – CI>
0.51

$$$$

###

target: D2LR (Homo sapiens, UniProt P14416); experiment: Quantification of biased agonism between pathways (operational model, LogBias); assay type: cell-based; parameters: expressed in transfected cells; conditions: 5 minute timepoint; dopamine as reference agonist
Sequence (P14416 whole entry): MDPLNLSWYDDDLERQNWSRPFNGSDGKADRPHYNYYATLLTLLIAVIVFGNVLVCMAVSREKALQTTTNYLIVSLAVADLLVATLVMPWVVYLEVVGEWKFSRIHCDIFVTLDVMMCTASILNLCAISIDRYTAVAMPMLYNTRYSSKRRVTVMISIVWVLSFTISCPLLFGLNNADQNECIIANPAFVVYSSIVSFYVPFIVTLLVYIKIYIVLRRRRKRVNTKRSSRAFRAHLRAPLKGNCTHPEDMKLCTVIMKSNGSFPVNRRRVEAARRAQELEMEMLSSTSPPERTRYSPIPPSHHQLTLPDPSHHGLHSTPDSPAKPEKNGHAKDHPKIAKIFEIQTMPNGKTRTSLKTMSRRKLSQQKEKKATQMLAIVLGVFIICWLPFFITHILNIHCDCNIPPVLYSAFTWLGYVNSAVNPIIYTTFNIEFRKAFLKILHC
Property name: LogBias GαoB – cAMP

>  <Molecule>
O=c1[nH]c2cccc(N3CCN(Cc4cccc(-c5ccccc5)c4)CC3)c2o1 [Bifeprunox, bifeprunox]

>  <Property name>
LogBias GαoB – cAMP

>  <Endpoint result>
0.43

$$$$
>  <Molecule>
CN1CCN(c2cccc3[nH]c(=O)oc23)CC1 [Pardoprunox, pardoprunox]

>  <Property name>
LogBias GαoB – cAMP

>  <Endpoint result>
-0.13

$$$$
>  <Molecule>
CCCN1CCC[C@@H](c2cccc(O)c2)C1 [S-3PPP]

>  <Property name>
LogBias GαoB – cAMP

>  <Endpoint result>
0.56

$$$$
>  <Molecule>
CCCN(CCC)CCc1cccc2c1CC(=O)N2 [Ropinirole, ropinirole]

>  <Property name>
LogBias GαoB – cAMP

>  <Endpoint result>
0.23

$$$$

###

Let's look at some molecules and their measured pEC50.
target: D2LR (Homo sapiens); assay: xCELLigence cellular impedance (CI) assay; assay type: cell-based; parameters: expressed in transfected cells; conditions: 45 min
pEC50: −log10 of the molar value.
Property name: pEC50

>  <Smiles representation>
O=c1[nH]c2cccc(N3CCN(Cc4cccc(-c5ccccc5)c4)CC3)c2o1

>  <Endpoint result>
9.47

$$$$
>  <Smiles representation>
CCCN(CCC)CCc1cccc2c1CC(=O)N2

>  <Endpoint result>
7.71

$$$$

###

Let's look at some molecules and their measured LogBias Gαi1 – CI.
molecular target: D2LR (Homo sapiens); assay: Quantification of biased agonism between pathways (operational model, LogBias); type: cell-based; set-up: expressed in transfected cells; conditions: 5 minute timepoint; dopamine as reference agonist

>  <Molecule>
CCCN(CCC)CCc1cccc2c1CC(=O)N2 [Ropinirole, ropinirole]

>  <LogBias Gαi1 – CI>
-0.19

$$$$
>  <Molecule>
O=c1[nH]c2cccc(N3CCN(Cc4cccc(-c5ccccc5)c4)CC3)c2o1 [Bifeprunox, bifeprunox]

>  <LogBias Gαi1 – CI>
1.68

$$$$
>  <Molecule>
CN1CCN(c2cccc3[nH]c(=O)oc23)CC1 [Pardoprunox, pardoprunox]

>  <LogBias Gαi1 – CI>
0.19

$$$$
>  <Molecule>
CCCN1CCC[C@@H](c2cccc(O)c2)C1 [S-3PPP]

>  <LogBias Gαi1 – CI>
0.64

$$$$

###

Assay system D2LR (Homo sapiens, UniProt P14416); read-out recorded as Ki.

>  <Smiles representation>
CCCN(CCC)CCc1cccc2c1CC(=O)N2

>  <Ki, µM>
2.51

$$$$
>  <Smiles representation>
O=c1[nH]c2cccc(N3CCN(Cc4cccc(-c5ccccc5)c4)CC3)c2o1

>  <Ki, µM>
4.37e-05

$$$$

###

molecular target: D2LR (Homo sapiens); assay: Quantification of biased agonism between pathways (operational model, LogBias); assay type: cell-based; set-up: expressed in transfected cells; settings: 5 minute timepoint; dopamine as reference agonist
Property name: LogBias Gαi1 – GαoB

>  <Smiles representation>
CCCN1CCC[C@@H](c2cccc(O)c2)C1

>  <Target desc>
D2LR (Homo sapiens)

>  <Endpoint result>
0.27

$$$$
>  <Smiles representation>
CCCN(CCC)CCc1cccc2c1CC(=O)N2

>  <Target desc>
D2LR (Homo sapiens)

>  <Endpoint result>
-0.26

$$$$
>  <Smiles representation>
CN1CCN(c2cccc3[nH]c(=O)oc23)CC1

>  <Target desc>
D2LR (Homo sapiens)

>  <Endpoint result>
0.48

$$$$
>  <Smiles representation>
O=c1[nH]c2cccc(N3CCN(Cc4cccc(-c5ccccc5)c4)CC3)c2o1

>  <Target desc>
D2LR (Homo sapiens)

>  <Endpoint result>
1.17

$$$$

###

Let's look at some compounds and their measured pEC50.
target: D2LR (Homo sapiens); assay: Inhibition of forskolin-induced cAMP production (BRET CAMYEL biosensor); conditions: pEC50 cAMP, 2 min
pEC50: −log10 of the molar value.
Property name: pEC50

>  <Smiles representation>
CCCN(CCC)CCc1cccc2c1CC(=O)N2

>  <Endpoint result>
8.02

$$$$
>  <Smiles representation>
O=c1[nH]c2cccc(N3CCN(Cc4cccc(-c5ccccc5)c4)CC3)c2o1

>  <Endpoint result>
7.60

$$$$

###

molecular target: D2LR (Homo sapiens); assay: Inhibition of forskolin-induced cAMP production (BRET CAMYEL biosensor); conditions: pEC50 cAMP, 45 min

>  <Smiles representation>
CCCN(CCC)CCc1cccc2c1CC(=O)N2

>  <Units>
nM

>  <EC50>
97.7

$$$$
>  <Smiles representation>
O=c1[nH]c2cccc(N3CCN(Cc4cccc(-c5ccccc5)c4)CC3)c2o1

>  <Units>
nM

>  <EC50>
2.75

$$$$

###

system: D2R; assay: Simulation of receptor occupancy over time from kon and koff; conditions: simulation with a KD concentration of each agonist
Let's look at some compounds and their measured time to maximal receptor occupancy.

>  <Smiles representation>
NCCc1ccc(O)c(O)c1

>  <Target desc>
D2R

>  <time to maximal receptor occupancy>
≤ 1 min

$$$$
>  <Smiles representation>
CN1CCN(c2cccc3[nH]c(=O)oc23)CC1

>  <Target desc>
D2R

>  <time to maximal receptor occupancy>
≤ 1 min

$$$$
>  <Smiles representation>
CCCN(CCC)CCc1cccc2c1CC(=O)N2

>  <Target desc>
D2R

>  <time to maximal receptor occupancy>
≤ 1 min

$$$$
>  <Smiles representation>
CN(C)C(=O)N[C@H]1CC[C@H](CCN2CCN(c3cccc(Cl)c3Cl)CC2)CC1

>  <Target desc>
D2R

>  <time to maximal receptor occupancy>
~10 min

$$$$
>  <Smiles representation>
CCCN1CCC[C@@H](c2cccc(O)c2)C1

>  <Target desc>
D2R

>  <time to maximal receptor occupancy>
≤ 1 min

$$$$
>  <Smiles representation>
O=c1[nH]c2cccc(N3CCN(Cc4cccc(-c5ccccc5)c4)CC3)c2o1

>  <Target desc>
D2R

>  <time to maximal receptor occupancy>
> 90 min

$$$$

###

target: D2LR (Homo sapiens); experiment: xCELLigence cellular impedance (CI) assay; type: cell-based; set-up: expressed in transfected cells; settings: 30 min
Let's look at some compounds and their measured EC50.

>  <Compound>
O=c1[nH]c2cccc(N3CCN(Cc4cccc(-c5ccccc5)c4)CC3)c2o1 [Bifeprunox, bifeprunox]

>  <EC50>
0.55 nM

$$$$
>  <Compound>
CCCN(CCC)CCc1cccc2c1CC(=O)N2 [Ropinirole, ropinirole]

>  <EC50>
17 nM

$$$$

###

biological target: D2LR (Homo sapiens, UniProt P14416); test: Inhibition of forskolin-induced cAMP production (BRET CAMYEL biosensor); conditions: pEC50 cAMP, 15 min

>  <Smiles representation>
CCCN(CCC)CCc1cccc2c1CC(=O)N2

>  <Target desc>
D2LR (Homo sapiens, UniProt P14416)

>  <EC50 [nM]>
42.7

$$$$
>  <Smiles representation>
O=c1[nH]c2cccc(N3CCN(Cc4cccc(-c5ccccc5)c4)CC3)c2o1

>  <Target desc>
D2LR (Homo sapiens, UniProt P14416)

>  <EC50 [nM]>
5.37

$$$$

###

biological target: D2LR (Homo sapiens); assay: Inhibition of forskolin-induced cAMP production (BRET CAMYEL biosensor); conditions: time 14.3167 mins; single experiments n = 1, 2, 3
Let's look at some molecules and their measured Inhibition of cAMP production measured using a CAMYEL BRET biosensor, Net BRET.
Property name: Inhibition of cAMP production measured using a CAMYEL BRET biosensor, Net BRET

>  <Smiles representation>
O=c1[nH]c2cccc(N3CCN(Cc4cccc(-c5ccccc5)c4)CC3)c2o1

>  <Target desc>
D2LR (Homo sapiens)

>  <Endpoint result>
0.1428

$$$$
>  <Smiles representation>
CCCN(CCC)CCc1cccc2c1CC(=O)N2

>  <Target desc>
D2LR (Homo sapiens)

>  <Endpoint result>
0.2319

$$$$
>  <Smiles representation>
CCCN1CCC[C@@H](c2cccc(O)c2)C1

>  <Target desc>
D2LR (Homo sapiens)

>  <Endpoint result>
0.1016

$$$$
>  <Smiles representation>
CN1CCN(c2cccc3[nH]c(=O)oc23)CC1

>  <Target desc>
D2LR (Homo sapiens)

>  <Endpoint result>
0.1522

$$$$
